Biological target: soluble ectodomain of sortilin-6his (Homo sapiens, UniProt Q99523, V650M)
Construct: the soluble ectodomain of sortilin-6his is measured by microscale thermophoresis (MST)
Sequence (Q99523 with tags, fused parts or gaps V650M): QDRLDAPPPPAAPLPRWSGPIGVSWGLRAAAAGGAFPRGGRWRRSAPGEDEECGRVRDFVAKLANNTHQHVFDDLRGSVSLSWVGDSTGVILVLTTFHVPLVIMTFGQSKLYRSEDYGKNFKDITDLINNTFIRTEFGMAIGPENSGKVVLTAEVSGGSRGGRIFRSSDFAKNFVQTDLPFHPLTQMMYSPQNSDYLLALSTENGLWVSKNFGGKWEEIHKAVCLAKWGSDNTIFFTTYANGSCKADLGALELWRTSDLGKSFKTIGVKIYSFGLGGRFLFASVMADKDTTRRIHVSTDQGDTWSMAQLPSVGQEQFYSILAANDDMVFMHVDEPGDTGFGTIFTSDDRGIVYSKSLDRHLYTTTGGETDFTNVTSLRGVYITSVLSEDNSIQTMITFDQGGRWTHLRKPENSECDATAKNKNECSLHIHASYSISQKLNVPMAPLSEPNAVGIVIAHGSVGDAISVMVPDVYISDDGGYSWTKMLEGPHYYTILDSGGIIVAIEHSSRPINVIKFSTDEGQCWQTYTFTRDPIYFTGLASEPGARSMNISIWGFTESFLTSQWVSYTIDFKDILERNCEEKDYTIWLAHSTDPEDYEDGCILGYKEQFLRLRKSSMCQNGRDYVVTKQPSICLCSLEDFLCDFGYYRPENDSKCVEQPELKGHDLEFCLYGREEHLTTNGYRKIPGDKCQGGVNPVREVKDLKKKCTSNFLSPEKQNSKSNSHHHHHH
Assay: MST binding to soluble ectodomain of sortilin-6his
Details: Table 1; biotin-linker-peptide bifunctional compounds; MST; read-out: KD score, binding to sortilin (Kd)
pKd: −log10 of the molar value. Residues, ends and D or L forms follow the SMILES beside them. *: point of attachment. Biotin = O=C1N[C@H]2[C@H](CS[C@H]2CCCCC(=O)*)N1
Quick reference for pKd among some compounds

Example compounds with recorded pKd:
COMPOUND: CC(C)C[C@H](NC(=O)[C@H](CC(C)C)NC(=O)[C@H](CCC(N)=O)NC(=O)[C@H](CCCNC(=N)N)NC(=O)CNC(=O)CNC(=O)CNC(=O)CNC(=O)[C@H](CO)NC(=O)CNC(=O)CNC(=O)CCCC[C@@H]1SC[C@@H]2NC(=O)N[C@@H]21)C(=O)O [compound 150] (Biotin-GGSGGGGRQLL-OH)
TEST_RESULT: > 7.00
//
COMPOUND: CC(C)C[C@H](NC(=O)[C@H](CC(C)C)NC(=O)[C@H](CCC(N)=O)NC(=O)[C@H](Cc1ccccc1)NC(=O)CNC(=O)CNC(=O)[C@H](CO)NC(=O)CNC(=O)CNC(=O)CCCC[C@@H]1SC[C@@H]2NC(=O)N[C@@H]21)C(=O)O [compound 144] (Biotin-GGSGGFQLL-OH)
TEST_RESULT: > 7.00

Consider the record given below.
*Q* Entry CC(C)C[C@H](NC(=O)[C@H](CC(C)C)NC(=O)[C@H](CCC(N)=O)NC(=O)[C@H](Cc1ccccc1)NC(=O)CNC(=O)CNC(=O)[C@H](CO)NC(=O)CNC(=O)CNC(=O)CNC(=O)CNC(=O)[C@H](CO)NC(=O)CNC(=O)CNC(=O)CNC(=O)CNC(=O)[C@H](CO)NC(=O)CNC(=O)CNC(=O)CCCC[C@@H]1SC[C@@H]2NC(=O)N[C@@H]21)C(=O)O [SEQ ID NO.: 155] (Biotin-GGSGGGGSGGGGSGGFQLL-OH) needs its pKd filled in; supply it.
*A* 5.70 to 7.00

====

Biological target: TNFa-6His (Homo sapiens, UniProt P01375)
Sequence (P01375 77-233 limits assumed): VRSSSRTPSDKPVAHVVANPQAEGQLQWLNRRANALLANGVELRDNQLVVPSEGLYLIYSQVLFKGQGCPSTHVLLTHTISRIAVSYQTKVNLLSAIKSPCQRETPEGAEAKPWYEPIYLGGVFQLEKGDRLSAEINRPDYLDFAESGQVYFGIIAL
ENDPOINT: Kd

MOLECULE: C[C@@H]1CN(c2ncc(-c3ccc4c(n3)N(Cc3cccnc3C#N)C(C)(C)C4=O)cn2)CCN1C(=O)CNC(=O)COCCOCCOCCOCCOc1cccc(Oc2ccc(C(=O)N[C@@H](CCC(C)(C)C)C(=O)O)cn2)c1 [BF082]
TEST_RESULT: > 2000 nM

*Q* Fill in: Kd on TNFa-6His (Homo sapiens, UniProt P01375), entry Cc1nc2cc(F)c(-c3cnc(OCCOCCOCCOCCOCCOCCOCCNC(=O)c4ccc(Oc5cccc(OCC(=O)N[C@@H](CCC(C)(C)C)C(=O)O)c5)nc4)nc3)nc2c(N[C@H](C)c2cc(C#N)ccc2F)c1Cl [BF079]
*A* < 2000 nM

*Q* Fill in: Kd on TNFa-6His (Homo sapiens, UniProt P01375), entry C[C@@H]1CN(c2ncc(-c3ccc4c(n3)N(Cc3cccnc3C#N)C(C)(C)C4=O)cn2)CCN1C(=O)CNC(=O)CCCCCOCCOCCNC(=O)c1cccc(Oc2ccc(C(=O)N[C@@H](CCC(C)(C)C)C(=O)O)cn2)c1 [BF0100]
*A* < 2000 nM

*Q* Fill in: Kd on TNFa-6His (Homo sapiens, UniProt P01375), entry Cc1nc2cc(F)c(-c3cnc(OCCCCCn4cc(COCCOCCOCCOCCNC(=O)c5ccc(Oc6cccc(OCC(=O)N[C@@H](CCC(C)(C)C)C(=O)O)c6)nc5)nn4)nc3)nc2c(N[C@H](C)c2cc(C#N)ccc2F)c1Cl [BF076]
*A* < 2000 nM

*Q* Fill in: Kd on TNFa-6His (Homo sapiens, UniProt P01375), entry Cc1cc(-c2ccc(OCC(=O)NCCOCCOCc3cn(CCCCCOc4ncc(-c5nc6c(N[C@@H](C)c7cc(C#N)ccc7F)c(Cl)c(C)nc6cc5F)cn4)nn3)cc2)cc(NC(=O)c2ccc(C(F)(F)F)cc2C(=O)O)n1 [BF080]
*A* < 2000 nM

*Q* Fill in: Kd on TNFa-6His (Homo sapiens, UniProt P01375), entry C[C@@H]1CN(c2ncc(-c3ccc4c(n3)N(Cc3cccnc3C#N)C(C)(C)C4=O)cn2)CCN1C(=O)CNC(=O)CCCCCCCCCCn1cc(-c2cccc(Oc3ccc(C(=O)N[C@@H](CCC(C)(C)C)C(=O)O)cn3)c2)nn1 [BF081]
*A* < 2000 nM
